Reported IC50 on human ACC2 (Homo sapiens (Human)) for assorted compounds, compiled from publications.
Record the value in nM, omitting the unit from your answer.

Find the recorded IC50 belonging to `CC1(C)COC2(CCC3(CC2)NC(=O)C(c2cc(-c4ccc(Cl)cc4)ccc2Cl)=C3O)OC1` and report it.
9470

Find the recorded IC50 belonging to `CCCOc1ccc(C#Cc2ccc(C(C)(C)NC(C)=O)cc2)c(OC)c1` and report it.
11800

Find the recorded IC50 belonging to CCC(=O)Nc1nc(C)c(C(=O)N[C@@H](C)c2ccc(OC3CCN(c4ccc(OCC5CC5)cc4)C3)cc2)s1 (some centres unmarked) and report it.
23

Find the recorded IC50 belonging to CC(=O)N[C@@H](C)c1ccc(OC2CCN(c3cc(OCC4CC4(F)F)ncc3F)C2)cc1 (some centres unmarked) and report it.
63

Find the recorded IC50 belonging to C[C@H](NC(=O)C1CNC(=O)C1)c1ccc(C2CN(c3ccc(OCC4CC4)cc3)C2)cc1 (some centres unmarked) and report it.
2730

Find the recorded IC50 belonging to CC(C)Oc1cc(N2CCC(Oc3ccc([C@H](C)NC(=O)c4ccco4)cc3)C2)ccn1 (some centres unmarked) and report it.
862

Find the recorded IC50 belonging to `C[C@H](NC(=O)C1CC1)c1ccc(C2CN(c3ccc4c(c3)OCCO4)C2)cc1` and report it.
2460

Find the recorded IC50 belonging to CC(=O)NC(C)Cc1ccc(C#Cc2ccc(C(=O)O)cc2)cc1 (centres unmarked) and report it.
2400
